tested on: DU-145 prostate; assay: NCI-60 one-dose screen, 48 h (100 = growth as untreated, 0 = no growth, -100 = all killed); settings: 10 µM unless noted
This is part of a sample that, as a whole, favours compounds with a hit. Of some 83,000 tested, about 20% had one in any assay. Activity calls are given as the source filed them. How the source made its calls: active means growth percent below 10; inactive means the rest.
REPORTED PROPERTY: growth

# annotated cases, reported growth shown
COMPOUND | TEST VALUE
CN(C)c1ccc(N=Nc2ccc(Br)cn2)c(O)c1 | 24.7% (inactive)
OCc1ccc(N2CCc3cccc(F)c3C2)cc1Cl | 100% [0.1 µM] (inactive)
COc1cccc(C2=NN3C(C2)c2cc(Br)cc(OC)c2OC32CCN(Cc3ccccc3)CC2)c1 (stereo not drawn) | 105% (inactive)
CC1=CC(C)(C)Nc2ccc(Cc3ccc4c(c3)C(C)=CC(C)(C)N4)cc21 | 98.1% (inactive)
COc1ccc(S(=O)(=O)N2CCCCC2)cc1NC(=O)c1[nH]c(C)c2c1CCCCC2=O | 61.5% (inactive)
Cc1cc(C)c2nc3nc(C)cc(C)c3c(N)c2c1 | 15.5% (inactive)
NNCCc1ccc(NC(=O)CCCc2ccc(/C=C/C(=O)NO)cc2)cc1 | 72.6% (inactive)
Cc1ccc(NC(=O)C2CCC(CN3CCN(C)CC3)CC2)cc1Nc1nccc(-c2cccnc2)n1 (stereo not drawn) | 100% (inactive)

Can you look up the measured growth of "COc1cccc(-c2nc3sccn3c2-c2ccnc(NCCNS(=O)(=O)c3ccccc3)c2)c1" for me?
20.5% (inactive)

Can you look up the measured growth of "CSc1nc(-c2cccc(NC(=O)CCl)c2)c(C#N)c(=O)n1C" for me?
77.3% (inactive)

Can you look up the measured growth of "CCN(CC)CCCCNc1c2ccc(Cl)cc2nc2ccc(OC)cc12" for me?
-2.29% (active)

Can you look up the measured growth of "C=CC(=O)Nc1cccc(-c2nc(SC)nc(Nc3cccc(OC)c3)c2C#N)c1" for me?
54.6% (inactive)

Can you look up the measured growth of CCOC(=O)C(C)(C#N)C1C=CCCC1 (stereo not drawn) for me?
97.1% (inactive)
